- EXPERIMENT SUMMARY: Cytotoxicity against human HepG2 cells assessed as inhibition of cell growth incubated for 24 hrs by WST-1 assay
- Assay type: toxicity, cell-based
- EXPERIMENTAL CONTEXT: read-out: LD50
MEASUREMENT LABEL: CC50 at 24 h

The recorded CC50 at 24 h for `O=C(Nc1nnc(-c2ccc3c(c2)CCCC3)o1)C1CC1` is > 32 mg/L

###

Provide the recorded MIC for the entries that follow.
- Tested on: Staphylococcus aureus
- EXPERIMENT SUMMARY: Antibacterial activity against methicillin resistant Staphylococcus aureus 181 assessed as inhibition of bacterial growth
- Type: functional
Please respond with the number in µg/mL and leave the unit unwritten.

So for `O=c1c(Br)cnc2onc(-c3ccc(Cl)cc3)n12` , the logged MIC turned out to be 53.6

Per the records, this compound ( `O=c1c(Br)cnc2onc(-c3cccc(F)c3F)n12` ) has MIC equal to 42.1

Looking up `O=c1c(Br)cnc2onc(-c3c(F)cccc3F)n12` , I see its MIC listed as 40.2

For `O=c1c(F)cnc2onc(-c3c(F)cccc3F)n12` the compound record lists MIC as 120

Lookup result for `O=c1c(Br)cnc2onc(-c3ccc(F)cc3F)n12` ; measured MIC: 29.9

For record CN[C@H](CC(C)C)C(=O)N[C@H]1C(=O)N[C@@H](CC(N)=O)C(=O)N[C@H]2C(=O)N[C@H]3C(=O)N[C@H](C(=O)N[C@H](C(=O)O)c4cc(O)cc(O)c4-c4cc3ccc4O)[C@H](O)c3ccc(c(Cl)c3)Oc3cc2cc(c3O[C@@H]2O[C@H](CO)[C@@H](O)[C@H](O)[C@H]2O[C@H]2C[C@](C)(N)[C@H](O)[C@H](C)O2)Oc2ccc(cc2Cl)[C@H]1O [VANCOMYCIN] the listed MIC is 20.3

###

Field: MIC. Provide a value for each of the compounds that follow.
- Tested on: Staphylococcus aureus
- EXPERIMENT SUMMARY: Antibacterial activity against methicillin resistant Staphylococcus aureus 181 assessed as inhibition of bacterial growth
- Type: functional

Reported MIC of `Cc1ccc(-c2noc3ncc(Br)c(=O)n23)cc1` : ≥ 125 µg/mL

// field: MIC; key: `O=c1c(Br)cnc2onc(-c3cccc(Cl)c3Cl)n12` ; value = ≥ 125 µg/mL

`O=c1c(Br)cnc2onc(-c3ccccc3Cl)n12` yielded MIC of 79.4 µg/mL

Lookup result for `O=c1c(F)cnc2onc(-c3ccc(Cl)cc3Cl)n12` ; measured MIC: ≥ 125 µg/mL

Entry `O=c1c(F)cnc2onc(-c3cccc(F)c3F)n12` , MIC reported as ≥ 125 µg/mL

# MIC (compound: `CO/N=C(\C(=O)N[C@@H]1C(=O)N2C(C(=O)[O-])=C(C[N+]3(C)CCCC3)CS[C@H]12)c1csc(N)n1` ) is 15.2 µg/mL

###

- Tested on: Staphylococcus aureus
- EXPERIMENT SUMMARY: microbe, parasite or virus in culture
- EXPERIMENTAL CONTEXT: 032
- Description: Antibacterial activity against methicillin resistant Staphylococcus aureus 032 assessed as inhibition of bacterial growth by CLSI protocol based serial dilution method
Answer each item with its documented MIC.

// assay Staphylococcus aureus, entry `Cc1nc(/C(=C\c2coc3ccccc3c2=O)c2ccc([N+](=O)[O-])cc2)no1` , MIC value = > 32 µg/mL

Bench note, Staphylococcus aureus: CC[C@H]1OC(=O)[C@H](C)[C@@H](O[C@H]2C[C@@](C)(OC)[C@@H](O)[C@H](C)O2)[C@H](C)[C@@H](O[C@@H]2O[C@H](C)C[C@H](N(C)C)[C@H]2O)[C@](C)(O)C[C@@H](C)C(=O)[C@H](C)[C@@H](O)[C@]1(C)O [ERYTHROMYCIN] , MIC reads > 32 µg/mL

Item `Cc1nc(/C(=C\c2coc3ccc(Br)cc3c2=O)c2ccc([N+](=O)[O-])cc2)no1` ; assay system Staphylococcus aureus; MIC reported as > 32 µg/mL

Here `Cc1ccc2occ(/C=C(/c3ccc([N+](=O)[O-])cc3)c3noc(C)n3)c(=O)c2c1` was tested on Staphylococcus aureus, and its MIC came to > 32 µg/mL

Form field, MIC with Staphylococcus aureus, item `Cc1nc(/C(=C\c2coc3cc(C)c(Cl)cc3c2=O)c2ccc([N+](=O)[O-])cc2)no1` : 16 µg/mL

Measured MIC for this entry `Cc1nc(/C(=C\c2coc3c(Cl)cc(Cl)cc3c2=O)c2ccc([N+](=O)[O-])cc2)no1` on Staphylococcus aureus: 32 µg/mL

Fill in: Staphylococcus aureus MIC for `Cc1cc(C)c2occ(/C=C(/c3ccc([N+](=O)[O-])cc3)c3noc(C)n3)c(=O)c2c1` = > 32 µg/mL

###

I'd be grateful if you could share measured MIC for these entries.
- Test system: Staphylococcus aureus
- EXPERIMENT SUMMARY: Antibacterial activity methicillin resistant Staphylococcus aureus 2658 RCMB assessed as inhibition of bacterial growth by broth microdilution method
- Type: functional

`Cc1nc(-c2ccc(C(C)(C)C)cc2)sc1-c1nnc(NC(=N)c2cccnc2)o1` tested on Staphylococcus aureus gave MIC: > 50 µg/mL

MIC on Staphylococcus aureus for `Cc1nc(-c2ccc(C(C)(C)C)cc2)sc1-c1nnc(NC(=N)c2ccncc2)o1` is > 50 µg/mL

Observed MIC on Staphylococcus aureus, entry `Cc1nc(-c2ccc(C(C)(C)C)cc2)sc1-c1nnc(NC(=N)c2ccccn2)o1` , equals > 50 µg/mL

###

Give measured MIC for each item. Keep answers brief.
- Test system: Staphylococcus aureus
- EXPERIMENT SUMMARY: Antibacterial activity against methicillin resistant Staphylococcus aureus 181 assessed as inhibition of bacterial growth
- Type: functional

// MIC lookup, compound = `O=c1c(Br)cnc2onc(-c3ccccc3)n12` , result: ≥ 125 µg/mL

Value of measured MIC for the entry `O=c1c(F)cnc2onc(-c3ccc(Cl)cc3)n12` : ≥ 125 µg/mL

Kindly note the recorded MIC for `O=c1c(F)cnc2onc(-c3cccc(Cl)c3Cl)n12` , which is ≥ 125 µg/mL
